# target: T1, human MMP2 (pro-MMP2 activated with APMA) (human, UniProt P08253 30-660)
# T1 sequence (looked up): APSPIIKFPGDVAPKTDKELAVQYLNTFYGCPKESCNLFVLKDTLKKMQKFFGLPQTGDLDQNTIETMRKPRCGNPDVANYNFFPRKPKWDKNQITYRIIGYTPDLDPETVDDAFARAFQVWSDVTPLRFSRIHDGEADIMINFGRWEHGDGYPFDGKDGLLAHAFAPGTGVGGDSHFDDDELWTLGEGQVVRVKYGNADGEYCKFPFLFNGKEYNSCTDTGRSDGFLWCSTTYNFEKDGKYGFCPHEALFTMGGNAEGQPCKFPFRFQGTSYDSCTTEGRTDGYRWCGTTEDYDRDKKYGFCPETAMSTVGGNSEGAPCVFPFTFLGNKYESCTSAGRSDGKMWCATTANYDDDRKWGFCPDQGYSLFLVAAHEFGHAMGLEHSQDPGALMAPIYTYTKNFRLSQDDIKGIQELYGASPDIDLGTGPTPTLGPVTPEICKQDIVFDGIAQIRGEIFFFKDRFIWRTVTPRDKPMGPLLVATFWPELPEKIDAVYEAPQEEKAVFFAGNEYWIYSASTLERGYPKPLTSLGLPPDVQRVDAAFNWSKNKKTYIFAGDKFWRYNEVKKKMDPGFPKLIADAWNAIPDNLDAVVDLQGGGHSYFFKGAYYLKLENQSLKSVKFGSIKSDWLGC
# assay_info: cell-based or functional assay
measured_metric: MMP2 Inhibition Shift (fold)
Entry rule: numbers only, all in fold.

Please give the measured MMP2 Inhibition Shift for this binder: TIMP-3 mutein K45N, V47T, F57N, K75N, P77T, K94N, E96T, R138T, G173T (other) CTCSPSHPQDAFCNSDIVIRANVTGKKLVKEGPNGTLVYTIKQMKMYRGFTNMTHVQYIHTEASESLCGLNLTVNKYQYLLTGRVYDGKMYTGLCNFVERWDQLTLSQRKGLNYTYHLGCNCKIKSCYYLPCFVTSKNECLWTDMLSNFTYPGYQSKHYACIRQKGGYCSWYRGWAPPDKSIINATDP
7
